target: human CYP2D6 (Homo sapiens, UniProt P10635); assay: biochemical; conditions: CYP2D6 AC50 (half-maximal activity concentration)
Sequence (P10635 whole entry): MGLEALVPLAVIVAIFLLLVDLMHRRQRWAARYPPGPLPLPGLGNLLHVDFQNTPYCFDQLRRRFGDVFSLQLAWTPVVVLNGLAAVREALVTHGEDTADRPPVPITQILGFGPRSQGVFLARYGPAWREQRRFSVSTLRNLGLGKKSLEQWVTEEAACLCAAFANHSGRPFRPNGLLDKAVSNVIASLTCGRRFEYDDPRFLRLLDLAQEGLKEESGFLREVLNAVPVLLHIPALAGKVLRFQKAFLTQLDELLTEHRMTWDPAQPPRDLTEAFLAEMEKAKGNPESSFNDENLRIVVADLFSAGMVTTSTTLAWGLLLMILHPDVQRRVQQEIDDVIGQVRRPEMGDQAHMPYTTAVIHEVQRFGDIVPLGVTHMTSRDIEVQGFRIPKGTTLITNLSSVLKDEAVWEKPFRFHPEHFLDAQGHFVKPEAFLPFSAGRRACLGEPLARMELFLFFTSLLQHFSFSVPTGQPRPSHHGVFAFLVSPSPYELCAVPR
Counter-ions that a name gives are not always drawn.
Please go through the items and note down their AC50.
Answers are plain numbers, in µM.

{"columns": ["compound", "experimentalSystem", "AC50 / µM"],
 "data": [
  ["CC1(C)C(C=C(Cl)Cl)C1C(=O)OCc1cccc(Oc2ccccc2)c1 (centres unmarked) [Permethrin]", "human CYP2D6 (Homo sapiens, UniProt P10635)", 27.5],
  ["CCOP(=O)(OCC)OC(=CCl)c1ccc(Cl)cc1Cl [Chlorfenvinphos]", "human CYP2D6 (Homo sapiens, UniProt P10635)", 37]
]}

Batch request: AC50 per item, same order as input.
1. N=C(N)NC(=O)Cc1c(Cl)cccc1Cl [Guanfacine hydrochloride]
2. CC(O)(c1ccc(Cl)cc1)c1ccc(Cl)cc1 [Chlorfenethol]
3. CCCCCCCC(=O)Oc1c(Br)cc(C#N)cc1Br [Bromoxynil octanoate]

[reply]
1: 25.8; 2: 55.5; 3: 85.8

====

target: Photinus pyralis (firefly) luciferase (Photinus pyralis); assay: biochemical; assay type: biochemical
Sequence (P08659 whole entry): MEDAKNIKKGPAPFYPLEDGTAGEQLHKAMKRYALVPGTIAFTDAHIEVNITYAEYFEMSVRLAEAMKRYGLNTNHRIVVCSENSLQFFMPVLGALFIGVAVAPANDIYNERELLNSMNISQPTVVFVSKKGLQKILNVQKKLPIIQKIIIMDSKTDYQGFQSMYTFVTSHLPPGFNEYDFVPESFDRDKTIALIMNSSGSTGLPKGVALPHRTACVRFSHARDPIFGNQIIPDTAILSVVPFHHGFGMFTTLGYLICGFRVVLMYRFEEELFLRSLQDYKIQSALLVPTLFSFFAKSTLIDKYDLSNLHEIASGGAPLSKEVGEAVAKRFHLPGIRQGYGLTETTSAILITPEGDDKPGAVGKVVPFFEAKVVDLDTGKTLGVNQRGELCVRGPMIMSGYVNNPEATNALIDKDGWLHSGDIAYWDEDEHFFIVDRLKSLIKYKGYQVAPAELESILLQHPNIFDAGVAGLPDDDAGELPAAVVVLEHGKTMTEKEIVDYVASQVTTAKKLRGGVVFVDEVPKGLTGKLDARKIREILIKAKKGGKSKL
Structures can show the parent of a compound that is named as a salt.
reportedEndpoint: Luciferase IC50 (half-maximal inhibitory concentration)

Sample answers from the record:
{"columns": ["molecule", "experimentalSystem", "resultValue"],
 "data": [
  ["FC(F)(F)c1ccccc1-n1ccnc1", "Photinus pyralis (firefly) luciferase (Photinus pyralis)", "Inactive"],
  ["O=C(C(=O)c1ccc(Br)cc1)c1ccc(Br)cc1", "Photinus pyralis (firefly) luciferase (Photinus pyralis)", "Inactive"],
  ["CC[C@H]1C[C@@H]2C[C@H]3c4[nH]c5ccc(OC)cc5c4CCN(C2)[C@@H]13.Cl [Ibogaine hydrochloride]", "Photinus pyralis (firefly) luciferase (Photinus pyralis)", "Inactive"],
  ["CN(C)CCN(Cc1ccccc1)c1ccccn1 [Tripelennamine citrate]", "Photinus pyralis (firefly) luciferase (Photinus pyralis)", "Inactive"],
  ["CC(=O)O.CC(C)c1ccc2c(c1)CC[C@H]1[C@](C)(CN)CCC[C@]21C [Dehydroabietylamine acetate]", "Photinus pyralis (firefly) luciferase (Photinus pyralis)", "Inactive"],
  ["CCCCCCCCCCCCCC[P+](CCCC)(CCCC)CCCC.CCCCCCCCCCCCc1ccc(S(=O)(=O)[O-])cc1", "Photinus pyralis (firefly) luciferase (Photinus pyralis)", "Inactive"],
  ["CN(C)c1ccc(C(=N)c2ccc(N(C)C)cc2)cc1 [Auramine hydrochloride]", "Photinus pyralis (firefly) luciferase (Photinus pyralis)", "Inactive"],
  ["CCOP(=S)(OCC)SC(CCl)N1C(=O)c2ccccc2C1=O (stereo not drawn)", "Photinus pyralis (firefly) luciferase (Photinus pyralis)", "Inactive"],
  ["COC(=O)c1c(C)cc(O)c(C)c1O", "Photinus pyralis (firefly) luciferase (Photinus pyralis)", "Inactive"],
  ["CCOCn1c(-c2ccc(Cl)cc2)c(C#N)c(Br)c1C(F)(F)F", "Photinus pyralis (firefly) luciferase (Photinus pyralis)", "Inactive"]
]}

List the reported Luciferase IC50 (half-maximal inhibitory concentration) of each molecule below.
1. COC(=O)c1cncn1C(C)c1ccccc1.Cl (stereo not drawn) [Metomidate hydrochloride]
2. CCC(COC(=O)c1cc(OC)c(OC)c(OC)c1)(c1ccccc1)N(C)C.O=C(O)/C=C\C(=O)O (stereo not drawn) [Trimebutine maleate]
3. CC(=C(CCOC(=O)C(C)C)SSC(CCOC(=O)C(C)C)=C(C)N(C=O)Cc1cnc(C)nc1N)N(C=O)Cc1cnc(C)nc1N (stereo in doubt)
4. CSc1ccc2c(c1)N(CCC1CCCCN1C)c1ccccc1S2 (stereo not drawn) [Thioridazine hydrochloride]
5. [Cl-].c1ccc(C[P+](c2ccccc2)(c2ccccc2)c2ccccc2)cc1 [Benzyltriphenylphosphonium chloride]
6. CC(CNC1CCCCC1)OC(=O)c1ccccc1 (stereo not drawn) [Hexylcaine hydrochloride]

[reply]
["Inactive", "Inactive", "Inactive", "Inactive", "Inactive", "Inactive"]

Hey, quick one: what's Luciferase IC50 (half-maximal inhibitory concentration) for each of these?
1. COCCOC(=O)C1=C(C)NC(C)=C(C(=O)OC(C)C)C1c1cccc([N+](=O)[O-])c1 (stereo not drawn)
2. CC(C)(C)[C@@H](O)[C@@H](Cc1ccc(Cl)cc1)n1cncn1 (racemic)
3. CCN(CC)C(=O)/C(C#N)=C/c1cc(O)c(O)c([N+](=O)[O-])c1
4. CCCCc1cc2ccccc2c(OCCN(C)C)n1 [Dimethisoquin hydrochloride]

[reply]
Inactive
Inactive
Inactive
Inactive

Need Luciferase IC50 (half-maximal inhibitory concentration) for each of these molecules.
1. Clc1ccc(C(c2ccccc2Cl)C(Cl)(Cl)Cl)cc1 (stereo not drawn)
2. CCOP(=S)(OCC)SCn1nnc2ccccc2c1=O
3. CCNP(=S)(OC)O/C(C)=C/C(=O)OC(C)C (stereo not drawn)
4. N#Cc1c(-c2ccc(Cl)cc2)[nH]c(C(F)(F)F)c1Br
5. NS(=O)(=O)C(F)(F)C(F)(F)C(F)(F)C(F)(F)C(F)(F)C(F)(F)C(F)(F)C(F)(F)F
6. CC(C(O)c1ccccc1)N(C)C/C=C/c1ccccc1 (stereo not drawn)

[reply]
["Inactive", "Inactive", "Inactive", "Inactive", "Inactive", "Inactive"]

Please look at the items below and tell me Luciferase IC50 (half-maximal inhibitory concentration) for each one, in order.
1. CC(C)(C)c1cc(CCC(=O)NN)cc(C(C)(C)C)c1O
2. CCCCCCCC[N+](C)(CCCCCCCC)CCCCCCCC.O=S(=O)([O-])C(F)(F)F
3. CCOP(=S)(NC(C)C)Oc1ccccc1C(=O)OC(C)C (stereo not drawn)

[reply]
1. Inactive
2. Inactive
3. Inactive

====

A short record of log10 of AC50 observed with human CYP2C19 (Homo sapiens, UniProt P33261) follows.
Sequence (P33261 whole entry): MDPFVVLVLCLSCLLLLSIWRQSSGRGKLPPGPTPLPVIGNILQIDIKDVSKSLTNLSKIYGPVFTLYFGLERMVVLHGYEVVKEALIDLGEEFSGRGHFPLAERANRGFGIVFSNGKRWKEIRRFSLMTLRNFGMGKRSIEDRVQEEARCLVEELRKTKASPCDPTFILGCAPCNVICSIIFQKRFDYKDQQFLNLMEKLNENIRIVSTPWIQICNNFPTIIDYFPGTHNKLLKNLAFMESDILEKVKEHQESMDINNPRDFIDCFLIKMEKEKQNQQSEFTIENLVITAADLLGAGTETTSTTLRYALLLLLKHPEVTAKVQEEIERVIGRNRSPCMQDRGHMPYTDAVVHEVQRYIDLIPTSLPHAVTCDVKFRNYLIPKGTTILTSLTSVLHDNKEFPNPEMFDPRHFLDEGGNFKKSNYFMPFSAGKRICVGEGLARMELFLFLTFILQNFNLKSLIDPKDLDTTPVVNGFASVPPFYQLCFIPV
# log10 transformed; quantity=AC50; unit=µM

Worked examples, 3 compounds total:
{"columns": ["compound", "log10 of AC50"],
 "data": [
  ["C=C(C)C(=O)OCC(O)COc1ccc(C(C)(C)c2ccc(OCC(O)COC(=O)C(=C)C)cc2)cc1 (stereo not shown) [Bisphenol A glycidyl methacrylate]", 0.88],
  ["CCCCCC=CCC1CC(=O)OC1=O (stereo not shown) [2-Octen-1-ylsuccinic anhydride]", 1.74],
  ["Cc1cc(O)c(Cl)cc1C", 1.79]
]}

Value sought for every listed compound: log10 of AC50.
1. CC(C)(C)C(=O)C=Cc1ccc(Cl)cc1
2. N.N.O=C([O-])C1(C(=O)[O-])CCC1.[Pt+2]
3. CC(C)C(=O)OCCOc1ccccc1 [Phenoxyethyl isobutyrate]
4. CN(C)C1CSSSC1.O=C(O)C(=O)O [Thiocyclam oxalate]
5. C/C=C1/C(=O)C[C@H]2[C@@H]3CCC4=CC(=O)CC[C@]4(C)[C@H]3CC[C@]12C
6. CCCCCCCCCCCCCOP(=O)(O)O [Monotridecyl phosphate]

[reply]
1. 0.84
2. 1.25
3. 1.59
4. 1.59
5. 0.67
6. 1.66

====

biological target: human CYP2C19 (Homo sapiens, UniProt P33261)
reportedEndpoint: CYP2C19 AC50 (half-maximal activity concentration)

Would you please look over these solved cases?
{"columns": ["compound", "experimentalSystem", "resultValue"],
 "data": [
  ["O=C(Oc1ccccc1)c1ccccc1 [Phenyl benzoate]", "human CYP2C19 (Homo sapiens, UniProt P33261)", "Inactive"],
  ["Oc1c(Cl)ccc(Cl)c1Cl", "human CYP2C19 (Homo sapiens, UniProt P33261)", "Inconclusive inhibitor"],
  ["ClC(Cl)(Cl)c1ccc(C(Cl)(Cl)Cl)cc1", "human CYP2C19 (Homo sapiens, UniProt P33261)", "Inconclusive inhibitor"],
  ["O=C(Cl)c1cccc(C(=O)Cl)c1 [1,3-Benzenedicarbonyl dichloride]", "human CYP2C19 (Homo sapiens, UniProt P33261)", "Inactive"],
  ["O=[N+]([O-])c1c(Cl)cc(Cl)cc1Cl", "human CYP2C19 (Homo sapiens, UniProt P33261)", "Inactive"]
]}

State the recorded CYP2C19 AC50 (half-maximal activity concentration) for every item in the following list.
1. NS(=O)(=O)c1ccc(Cl)c(S(N)(=O)=O)c1 [Clofenamide]
2. O=C(O)C(F)(F)C(F)(F)C(F)(F)C(F)(F)C(F)(F)C(F)(F)F
3. CCNc1nc(NC(C)C)nc(SC)n1

[reply]
Inactive
Inactive
Inconclusive inhibitor

====

target: Photinus pyralis (firefly) luciferase (Photinus pyralis); experiment: biochemical; assay type: biochemical
reportedEndpoint: pIC50
One number for each entry, as −log10 of the molar value.

Take a look at these entries with their results.
{"columns": ["compound", "pIC50"],
 "data": [
  ["O=c1c2ccccc2oc2ccccc12", 4.63],
  ["O=c1cc(-c2ccccc2)oc2ccccc12", 4.66],
  ["CN1C[C@H](C(=O)N[C@]2(C)O[C@@]3(O)[C@@H]4CCCN4C(=O)[C@H](Cc4ccccc4)N3C2=O)C=C2c3cccc4[nH]cc(c34)C[C@H]21 [Ergotamine D-tartrate]", 4.38],
  ["[O-][n+]1ccccc1SSc1cccc[n+]1[O-]", 6.35]
]}

Shifting focus to the compound that follows.
[ask] Report pIC50 for O=c1c(-c2ccc(O)cc2)coc2cc(O)ccc12 please.
[reply] 4.71
